Data origin: patent US8952024B2

system: wheat (Triticum aestivum); test: Test A pre-/postemergence plant response; type: in vivo; conditions: Preemergence, 500 g ai/ha; visual injury, 0 to 100 scale (0 no effect, 100 complete control), approx. ten days
Quick list: Plant response rating, Wheat per entry.
Result Type: Plant response rating, Wheat

{"columns": ["Smiles Record", "Study Target", "Result Type", "Measurement"],
 "data": [
  ["Cc1cccc(-n2c(-c3ccccc3)ncc(C(=O)C3=C(O)CCCC3=O)c2=O)c1C", "wheat (Triticum aestivum)", "Plant response rating, Wheat", 0],
  ["CCn1c(-c2cc(F)cc(F)c2)ncc(C(=O)C2=C(O)CCCC2=O)c1=O", "wheat (Triticum aestivum)", "Plant response rating, Wheat", 40],
  ["COCCn1c(-c2cccc(Br)c2)ncc(C(=O)C2=C(O)CCCC2=O)c1=O", "wheat (Triticum aestivum)", "Plant response rating, Wheat", 10],
  ["CCCn1c(-c2ccccc2)ncc(C(=O)C2=C(O)CCCC2=O)c1=O", "wheat (Triticum aestivum)", "Plant response rating, Wheat", 0],
  ["Cc1cccc(C)c1-n1c(-c2ccccc2)ncc(C(=O)C2=C(O)CCCC2=O)c1=O", "wheat (Triticum aestivum)", "Plant response rating, Wheat", 0],
  ["Cc1ccc(C)c(-n2c(-c3ccccc3)ncc(C(=O)C3=C(O)CCCC3=O)c2=O)c1", "wheat (Triticum aestivum)", "Plant response rating, Wheat", 0],
  ["COCCCn1c(-c2cccc(Cl)c2)ncc(C(=O)C2=C(O)CCCC2=O)c1=O", "wheat (Triticum aestivum)", "Plant response rating, Wheat", 0],
  ["O=C1CCCC(O)=C1C(=O)c1cnc(-c2ccccc2)n(C2CCOCC2)c1=O", "wheat (Triticum aestivum)", "Plant response rating, Wheat", 0]
]}

====

Readings of Plant response rating, Cupgrass, Woolly for the listed molecules
Test system: woolly cupgrass (Eriochloa villosa)
Experiment: Test B pre-/postemergence plant response
Assay type: in vivo
Settings: Postemergence, 250 g ai/ha; scale 0 to 100 (0 no effect, 100 complete control)
Description: […] Treated plants and controls were maintained in a greenhouse for 13 to 15 days, after which time all treated plants were visually evaluated and compared to controls. […]
Result Type: Plant response rating, Cupgrass, Woolly

{"columns": ["Smiles Record", "Measurement"],
 "data": [
  ["CCCCc1ncc(C(=O)C2=C(O)CCCC2=O)c(=O)n1-c1ccccc1C", 65],
  ["O=C1CCCC(O)=C1C(=O)c1cnc(C2CC2)n(-c2ccccc2)c1=O", 90],
  ["Cc1ccc(F)c(-n2c(-c3ccccc3)ncc(C(=O)C3=C(O)CCCC3=O)c2=O)c1", 90],
  ["COCCn1c(-c2cccs2)ncc(C(=O)C2=C(O)CCCC2=O)c1=O", 75],
  ["Cc1ccc(Cl)cc1-n1c(-c2ccccc2)ncc(C(=O)C2=C(O)CCCC2=O)c1=O", 95],
  ["O=C1CCCC(O)=C1C(=O)c1cnc(C2CCCC2)n(-c2ccccc2)c1=O", 70],
  ["CCCc1ncc(C(=O)C2=C(O)CCCC2=O)c(=O)n1CCC", 50],
  ["COCCCn1c(-c2cccc(F)c2)ncc(C(=O)C2=C(O)CCCC2=O)c1=O", 90],
  ["COCCn1c(-c2ccco2)ncc(C(=O)C2=C(O)CCCC2=O)c1=O", 75],
  ["COCCOCCn1c(-c2ccccc2)ncc(C(=O)C2=C(O)CCCC2=O)c1=O", 98]
]}
